# tested-system: human αvβ3 receptor (Homo sapiens, UniProt P05106+P06756)
# measurement-description: Bond displacement / binding competition test: Vitronectin/Vitronectin Receptor (αvβ3), plate assay
# setup-conditions: human vitronectin coated plates, 3 hours at ambient temperature, read-out: Binding competition test Vn/VR (αvβ3) IC50
Provide the reported IC50 of each item.
Answers are plain numbers, in nM.

See these solved cases before continuing.
compound	assay-result
O=C(NC(CCS(=O)(=O)c1ccc2c(c1)CCC(=NNC1=NCCN1)C1=C2CCC1)C(=O)O)OCc1ccccc1 (stereo not shown)	33
O=C(NC(CCSc1ccc2c(c1)CCC(=NN=C1NCCN1)C1=C2CCC1)C(=O)O)OCc1ccccc1 (racemic)	30
O=C(NC(CC[S+]([O-])c1ccc2c(c1)CCC(=NN=C1NCCN1)C1=C2CCC1)C(=O)O)OCc1ccccc1 (stereo not shown)	230

Consider the additional compound presented here.
Q: Please list IC50 recorded for the compound COc1c(SCCC(NC(=O)OCc2ccccc2)C(=O)O)cc2c(c1OC)C1=C(CCC1)C(=NNC1=NCCN1)CC2 (racemic)
Ans: 40
